target: MBD of MeCP2 (wild type) (human/mouse (residues 76-167 identical), UniProt P51608 76-167); assay: EMSA
Sequence (P51608 76-167): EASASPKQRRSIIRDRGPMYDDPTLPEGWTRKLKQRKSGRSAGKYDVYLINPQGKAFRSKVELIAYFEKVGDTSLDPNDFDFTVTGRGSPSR
Let's look at some binders and their measured Kd.
# number only, unit nM dropped from output

BINDER: TmCG•mCGA duplex (dsDNA, 5-methyl-dC at strand 1 pos 12 and strand 2 pos 8) DNA 1: TAGAAGAATTTCGTTCCAGA DNA 2: TCTGGAACGAAATTCTTCTA
Kd, nM: 35

Could you now consider this next binder?
The recorded Kd for CTG•mCGG single-mismatch duplex (dsDNA, 5-methyl-dC at strand 2 pos 8) DNA 1: TAGAAGAATTCTGTTCCAGA DNA 2: TCTGGAACGGAATTCTTCTA is 66
